Test system: A549
Assay: Cytotoxicity against human A549 cells after 48 hrs by SRB assay
Assay type: functional, cell-based
Details: Homo sapiens, A549, 48 h; read-out: GI50
recordedMetric: GI50

Record excerpt, results attached:
C/C=C1\NC(=O)[C@H](Cc2ccccc2)NC(=O)[C@@H](C(C)C)NC(=O)[C@@H]([C@H](C)CC)NC(=O)[C@H](NC(=O)[C@H](NC(=O)[C@H](CCCN)NC(=O)[C@H]2CCCN2C(=O)[C@H](NC(=O)[C@@H](NC(=O)[C@@H](NC(=O)[C@@H](Cc2ccccc2)NC(=O)CCCC(C)C)[C@@H](C)O)C(C)C)C(C)C)[C@H](C)CC)[C@H](C)OC(=O)[C@H](C(C)C)NC1=O : 2650 nM
C/C=C1\NC(=O)[C@H](Cc2ccccc2)NC(=O)[C@@H](C(C)C)NC(=O)[C@@H]([C@H](C)CC)NC(=O)[C@H](NC(=O)[C@H](NC(=O)[C@H](CCCN)NC(=O)[C@H]2CCCN2C(=O)[C@H](NC(=O)[C@@H](NC(=O)CNC(=O)[C@H](NC(=O)CCCC(C)C)C(C)C)C(C)C)C(C)C)[C@H](C)CC)[C@H](C)OC(=O)[C@H](C(C)C)NC1=O : 524 nM

Then there is this molecule:
Entry C/C=C1\NC(=O)[C@H](Cc2ccccc2)NC(=O)[C@@H](C(C)C)NC(=O)[C@@H]([C@H](C)CC)NC(=O)[C@H](NC(=O)[C@H](NC(=O)[C@H](CCCN)NC(=O)[C@H]2CCCN2C(=O)[C@H](NC(=O)[C@@H](NC(=O)[C@@H](NC(=O)[C@H](NC(=O)CC[C@H](C)CC)C(C)C)[C@@H](C)O)C(C)C)C(C)C)[C@H](C)CC)[C@H](C)OC(=O)[C@H](C(C)C)NC1=O has what GI50?
1480 nM
